I'd be grateful if you could share measured activation for these entries.
Biological target: Leucyl-cystinyl aminopeptidase (Mus musculus) (UniProt Q8C129)
Sequence (Q8C129 whole entry, looked up): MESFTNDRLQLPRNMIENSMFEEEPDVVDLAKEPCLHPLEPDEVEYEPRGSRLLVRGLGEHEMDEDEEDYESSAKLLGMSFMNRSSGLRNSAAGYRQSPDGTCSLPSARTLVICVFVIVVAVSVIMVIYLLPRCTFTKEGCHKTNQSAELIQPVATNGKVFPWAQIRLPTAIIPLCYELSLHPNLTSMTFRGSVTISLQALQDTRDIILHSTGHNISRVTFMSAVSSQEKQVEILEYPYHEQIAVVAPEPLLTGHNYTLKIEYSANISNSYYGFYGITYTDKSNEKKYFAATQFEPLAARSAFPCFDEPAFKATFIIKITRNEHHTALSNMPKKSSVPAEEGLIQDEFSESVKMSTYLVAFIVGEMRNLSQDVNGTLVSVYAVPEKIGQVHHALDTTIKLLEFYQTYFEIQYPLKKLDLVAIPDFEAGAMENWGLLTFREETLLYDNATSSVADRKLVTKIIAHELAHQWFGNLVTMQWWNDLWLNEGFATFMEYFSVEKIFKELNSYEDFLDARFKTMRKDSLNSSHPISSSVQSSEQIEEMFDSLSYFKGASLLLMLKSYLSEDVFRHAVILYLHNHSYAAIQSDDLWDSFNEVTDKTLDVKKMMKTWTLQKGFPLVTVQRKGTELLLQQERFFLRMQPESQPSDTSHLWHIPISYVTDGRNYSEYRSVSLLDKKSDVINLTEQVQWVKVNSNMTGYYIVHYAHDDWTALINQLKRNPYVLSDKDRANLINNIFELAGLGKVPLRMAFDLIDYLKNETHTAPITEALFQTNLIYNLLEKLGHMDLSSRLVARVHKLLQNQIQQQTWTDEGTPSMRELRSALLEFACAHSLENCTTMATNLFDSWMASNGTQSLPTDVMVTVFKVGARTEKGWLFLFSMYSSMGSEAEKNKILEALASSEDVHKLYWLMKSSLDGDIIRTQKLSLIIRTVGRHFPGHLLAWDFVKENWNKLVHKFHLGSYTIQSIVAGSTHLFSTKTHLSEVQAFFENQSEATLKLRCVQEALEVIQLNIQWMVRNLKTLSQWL
Assay: IRAP activators, dose response, selectivity assay for ERAP1 modulator project, biochemical, Leu-AMC fluorescence, cherry-picked samples (AID 743339)
Conditions: purified IRAP, Leu-AMC cleavage fluorescence, 1 h; at 11 µM (top of the series)
Report the value in % with no unit label.

Prompt line: What value of activation has been reported for the following molecule? `C[C@@H]1CN([C@H](C)CO)C(=O)c2cccc(NC(=O)Nc3ccccc3)c2O[C@@H]1CN(C)Cc1ccc(C(=O)O)cc1`
Response line: 17.7

Prompt line: And then `Cc1ccccc1-c1ccc2c(c1)O[C@@H](CN(C)Cc1ccc(C(=O)O)cc1)[C@@H](C)CN([C@@H](C)CO)S2(=O)=O` , what is it?
Response line: 4.16

Prompt line: Record: `C[C@H](CO)N1C[C@H](C)[C@H](CN(C)CC2CCCCC2)Oc2c(NC(=O)Nc3ccc(C(F)(F)F)cc3)cccc2C1=O`
Response line: 12.3

Prompt line: Same question, `CCN(CCCl)c1cc(CN(C)C)cc(NC(=O)c2ccc(C(=O)Nc3cc(CN(C)C)cc(N(CC)CCCl)c3)cc2)c1` this time
Response line: -21

Prompt line: Lookup `CNC[C@H]1OCCCC[C@@H](C)Oc2ccc(NS(=O)(=O)c3ccc(C)cc3)cc2C(=O)N([C@@H](C)CO)C[C@H]1C`
Response line: -8.83

Prompt line: Also need `C[C@@H]1CCCCO[C@@H](CN(C)Cc2ccccc2)[C@H](C)CN([C@H](C)CO)C(=O)c2cc(NS(=O)(=O)c3cccs3)ccc2O1` , thanks.
Response line: -6.87

Prompt line: Repeat for the following molecule: `COc1ccc(CN(C)C[C@H]2OCCCC[C@@H](C)Oc3ccc(NS(=O)(=O)c4cccs4)cc3C(=O)N([C@@H](C)CO)C[C@H]2C)cc1`
Response line: 2.6

====

Target: Leucyl-cystinyl aminopeptidase (Mus musculus) (UniProt Q8C129)
Experiment: IRAP activators, dose response, selectivity assay for ERAP1 modulator project, biochemical, Leu-AMC fluorescence, cherry-picked samples (AID 743339)
Settings: purified IRAP, Leu-AMC cleavage fluorescence, 1 h
Active and inactive are the calls of the source.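 The calls were made as follows: active = activation curve crossing 200% at or below the highest valid dose tested for that sample; inconclusive = flat curve with activation between 30 and 70%, or poor fit; inactive = the rest, including signal falling instead of rising.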
The reply should name one outcome from active, inactive

Prompt line: Tell me the assay call for `COc1cccc(CN(C)Cc2cc(=O)oc3cc(O)c(Cl)cc23)c1` please.
Response line: active

Prompt line: Then `O=C(C[C@H]1CC[C@@H]2[C@H](COC[C@@H](O)CN2C(=O)Nc2cccc(Cl)c2)O1)N1CCCCC1` ?
Response line: inactive

Prompt line: Next record, please: `Cc1c(C)c2ccc(O)c(CN3CCCC3)c2oc1=O`
Response line: active

Prompt line: Next record, please: `Cc1ccc2nc3c(cc(C(=O)NCc4ccccc4)c(=N)n3CCCn3ccnc3)c(=O)n2c1`
Response line: active

Prompt line: How about `COc1ccc(-c2cc3ccc(O)cc3oc2=O)cc1` ?
Response line: active

Prompt line: Ok, now `CCN1CCN(Cc2c(O)ccc3c(C)cc(=O)oc23)CC1`
Response line: active

Prompt line: Try `CCC(=O)N1[C@@H]2c3ccc(/C=C/c4ccccc4)c(=O)n3C[C@H]1[C@H](CO)[C@H]2C(=O)N(C)C` next.
Response line: active

Prompt line: Input `COC(=O)[C@H]1[C@H](CO)[C@H]2Cn3c(ccc(/C=C/c4ccccc4)c3=O)[C@@H]1N2C(=O)C1CCC1`
Response line: active

Prompt line: Likewise for `O=c1ccc2cc(O[C@@H]3O[C@@H](CO)[C@H](O)[C@@H](O)[C@@H]3O)c(O)cc2o1` ?
Response line: active

Prompt line: Field entry: `O=C(NCc1ccccn1)[C@@H]1[C@@H](CO)[C@@H]2Cn3c(ccc(/C=C/c4ccccc4)c3=O)[C@H]1N2CC1CC1`
Response line: active

Prompt line: Item: `CCNC(=O)[C@H]1[C@H](CO)[C@H]2Cn3c(ccc(/C=C/c4ccccc4)c3=O)[C@@H]1N2C(=O)C1CCCC1`
Response line: active

Prompt line: Another molecule to look at: `COc1cc2ccc(=O)oc2cc1O`
Response line: active

Prompt line: Next record, please: `CC(=O)N1[C@@H]2c3ccc(/C=C/c4ccccc4)c(=O)n3C[C@H]1[C@H](CO)[C@H]2C(=O)N(C)C`
Response line: active

Prompt line: Also `CC(=O)N1[C@@H]2c3ccc(/C=C/c4ccccc4)c(=O)n3C[C@H]1[C@H](CO)[C@H]2C(=O)N1CCOCC1` ?
Response line: active

Prompt line: Similarly, `CC(=O)N1[C@@H]2Cn3c(ccc(/C=C/c4ccccc4)c3=O)[C@H]1[C@@H](C(=O)NCC1CC1)[C@@H]2CO` ?
Response line: active

Prompt line: For `COC(=O)[C@@H]1[C@@H](CO)[C@@H]2Cn3c(ccc(/C=C/c4ccccc4)c3=O)[C@H]1N2C(=O)C1CCC1` then?
Response line: active

Prompt line: `Cc1c(-c2ccccc2)c(=O)oc2cc(O)ccc12` ?
Response line: active

Prompt line: `CCCN1[C@@H]2Cn3c(ccc(/C=C/c4ccccc4)c3=O)[C@H]1[C@@H](C(=O)NCc1ccccn1)[C@@H]2CO` , same question.
Response line: active

====

Assign activation to each entry below.
Target: Leucyl-cystinyl aminopeptidase (Mus musculus) (UniProt Q8C129)
Assay: IRAP activators, dose response, selectivity assay for ERAP1 modulator project, biochemical, Leu-AMC fluorescence, cherry-picked samples (AID 743339)
Conditions: purified IRAP, Leu-AMC cleavage fluorescence, 1 h; at 11 µM (top of the series)
Calls of active or inactive are those of the source.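 The calls were made as follows: active = activation curve crossing 200% at or below the highest valid dose tested for that sample; inconclusive = flat curve with activation between 30 and 70%, or poor fit; inactive = the rest, including signal falling instead of rising.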

Prompt line: // query activation value for entry `CCC(=O)N(C)C[C@H]1Oc2ncc(C#Cc3ccncc3)cc2C(=O)N([C@H](C)CO)C[C@H]1C`
Response line: 4.22% (inactive)

Prompt line: And what about the compound `C[C@H](CO)N1C[C@H](C)[C@@H](CN(C)CC2CC2)Oc2c(NC(=O)Nc3ccc(C(F)(F)F)cc3)cccc2C1=O` ?
Response line: -14.9% (inactive)

Prompt line: Try this compound next: `C[C@H]1CN([C@@H](C)CO)C(=O)c2cccc(NC(=O)Nc3ccc4c(c3)OCO4)c2O[C@@H]1CN(C)CC1CC1`
Response line: -1.26% (inactive)

Prompt line: Also check `COc1ccc(CN(C)C[C@H]2OCCCC[C@@H](C)Oc3ccc(NS(=O)(=O)c4cccs4)cc3C(=O)N([C@H](C)CO)C[C@H]2C)cc1`
Response line: 10% (inactive)

Prompt line: Can you check `O=C(C[C@H]1CC[C@H]2[C@@H](COC[C@@H](O)CN2C(=O)Nc2cccc(Cl)c2)O1)N1CCCCC1` next?
Response line: 16.9% (inactive)

Prompt line: Cool, now `C[C@@H]1CCCCO[C@@H](CN(C)CC2CC2)[C@@H](C)CN([C@H](C)CO)C(=O)c2cc(NS(=O)(=O)c3cccs3)ccc2O1`
Response line: 11.9% (inactive)

Prompt line: Please answer likewise for `COc1ccc(CN(C)C[C@@H]2OCCCC[C@@H](C)Oc3ccc(NS(=O)(=O)c4cccs4)cc3C(=O)N([C@H](C)CO)C[C@H]2C)cc1`
Response line: 3.48% (inactive)

====

Molecular target: Leucyl-cystinyl aminopeptidase (Mus musculus)
Assay: IRAP activators, dose response, selectivity assay for ERAP1 modulator project, biochemical, Leu-AMC fluorescence, cherry-picked samples (AID 743339)
Details: purified IRAP, Leu-AMC cleavage fluorescence, 1 h
READOUT NAME: AC200

Prompt line: Param item = `C/C(=N\NC(=O)CC#N)c1cc2ccc(O)cc2oc1=O` ; retrieve measured AC200.
Response line: 1080 nM

Prompt line: Let us now turn to O=S(=O)(O)c1ccc(N2N=C(c3ccccc3)CC2c2ccccc2)cc1 (stereo not drawn)
Response line: 1010 nM

Prompt line: Cool, now `COC(=O)Cc1c(C)c2ccc(O)c(CNCc3ccc(OC)c(OC)c3)c2oc1=O`
Response line: 535 nM

====

Target: Leucyl-cystinyl aminopeptidase (Mus musculus)
Assay: IRAP activators, dose response, selectivity assay for ERAP1 modulator project, biochemical, Leu-AMC fluorescence, cherry-picked samples (AID 743339)
Conditions: purified IRAP, Leu-AMC cleavage fluorescence, 1 h; at 10 µM (top of the series)
READOUT NAME: activation (%)
Please reply with the bare figure in % and do not write the unit itself.

Prompt line: Entry `Cc1noc(C)c1S(=O)(=O)Nc1ccc2c(c1)C(=O)N([C@H](C)CO)C[C@H](C)[C@H](CN(C)Cc1ccc3c(c1)OCO3)OCCCC[C@@H](C)O2` has what activation?
Response line: -18.4

Prompt line: Same question, `C[C@@H]1CCCCO[C@@H](CN(C)C)[C@H](C)CN([C@@H](C)CO)C(=O)c2cc(NC(=O)Nc3ccc(C(F)(F)F)cc3)ccc2O1` this time
Response line: -1.06

Prompt line: What about `CCCN(C)C[C@@H]1OCCCC[C@@H](C)Oc2ccc(NS(=O)(=O)c3ccc(C)cc3)cc2C(=O)N([C@H](C)CO)C[C@@H]1C` ?
Response line: -8.1

Prompt line: Next up: `CCCN(C)C[C@@H]1OCCCC[C@@H](C)Oc2ccc(NS(=O)(=O)c3c(C)noc3C)cc2C(=O)N([C@H](C)CO)C[C@@H]1C`
Response line: -22.5

Prompt line: Try this compound next: `Cc1noc(C)c1S(=O)(=O)N(C)C[C@@H]1OCCCC[C@@H](C)Oc2ccc(NS(=O)(=O)c3cccs3)cc2C(=O)N([C@@H](C)CO)C[C@@H]1C`
Response line: -12.6
